Each recorded value in this set is attributed to patent US12275745B2.

# TEST_TARGET: TEAD4 (Homo sapiens)
# Sequence (Q15561 whole entry, species assumed): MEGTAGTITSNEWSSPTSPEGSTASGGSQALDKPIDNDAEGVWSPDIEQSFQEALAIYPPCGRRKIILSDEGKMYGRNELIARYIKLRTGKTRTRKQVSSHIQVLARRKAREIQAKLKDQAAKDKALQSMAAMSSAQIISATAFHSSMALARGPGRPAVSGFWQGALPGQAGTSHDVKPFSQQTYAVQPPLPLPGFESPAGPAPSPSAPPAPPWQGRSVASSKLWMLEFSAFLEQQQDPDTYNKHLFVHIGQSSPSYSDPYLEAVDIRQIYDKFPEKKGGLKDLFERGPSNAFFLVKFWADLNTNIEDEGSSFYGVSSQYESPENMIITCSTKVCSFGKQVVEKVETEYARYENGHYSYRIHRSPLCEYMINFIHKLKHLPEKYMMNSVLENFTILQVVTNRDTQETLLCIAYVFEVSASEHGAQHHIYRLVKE
# EXPERIMENT_SUMMARY: TR-FRET (Lipid HTRF) TEAD lipid pocket probe displacement assay, TEAD4
# Format: binding
# CONDITION_CONTEXT: His-tagged TEAD4, biotinylated lipid pocket probe, 4 hours
pIC50: −log10 of the molar value.
OUTCOME_MEASURE: pIC50

# annotated cases, reported pIC50 shown
{"COMPOUND": "C=CC(=O)NCc1cc(-c2ccc(OC(F)(F)F)cc2)c2ncsc2c1-c1noc(=O)[nH]1", "TEST_TARGET": "TEAD4 (Homo sapiens)", "pIC50": 7.40}
{"COMPOUND": "C=CC(=O)NCc1cc(-c2ccc(OC(F)(F)F)cc2)c2cccnc2c1[C@@H](O)CO (single isomer, unassigned)", "TEST_TARGET": "TEAD4 (Homo sapiens)", "pIC50": 6.90}
{"COMPOUND": "C=CC(=O)NC1CN(c2nc(-c3ccc(OC(F)(F)F)cc3)c3ncn(C)c3n2)C1", "TEST_TARGET": "TEAD4 (Homo sapiens)", "pIC50": 7.64}
{"COMPOUND": "C=CC(=O)N(C)Cc1cc(-c2ccc(OC(F)(F)F)cc2)c2nccn2c1CO", "TEST_TARGET": "TEAD4 (Homo sapiens)", "pIC50": 7.43}
{"COMPOUND": "C=C(NC(=O)c1cc(-c2ccc(OC(F)(F)F)cc2)c2ncn(C)c2c1)C(=O)OC", "TEST_TARGET": "TEAD4 (Homo sapiens)", "pIC50": 7.82}

P. Cn1cnc2c(-c3ccc(OC(F)(F)F)cc3)cn(C3CN(C(=O)/C=C/CO)C3)c(=O)c21
Q. C=CC(=O)NCc1cc(-c2ccc(OC(F)(F)F)cc2)c2ncccc2c1[C@@H](O)CO (single isomer, unassigned)
Exam item: Task for the reader: decide whether P or Q has the larger pIC50. Could you answer with the label of the item you picked?
Marked response: P
